# Measured on: Potassium channel subfamily K member 9 (Homo sapiens)
# Experiment description: blockers of human TASK-3 (KCNK9) channel – HEK293 cells, thallium flux, primary screen (AID 488922)
# Conditions: HEK293 KCNK9, FluxOR thallium flux fluorescence, at 10 µM
Among all 310,000 compounds or so, about 3,800 (1.2%) were called active.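 Rule for the calls: active = ratio B-score over 3 SD below the library mean, with starting fluorescence within 5 SD of its mean; inactive = the rest, inconclusive results apart.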 The entries come from a sample that favours actives as a whole.
Use one of these outcomes when replying: yes (1) for active, no (0) for inactive

These solved cases illustrate the format of a correct answer.
Molecule	Measured on	Category label
COc1ccc(-c2csc(NC(=O)COC(=O)c3ccc(Br)o3)n2)cc1	Potassium channel subfamily K member 9 (Homo sapiens)	no (0)
O=C(O)CSc1c2c(nc3cc(C(=O)Nc4cccc(C(F)(F)F)c4)ccc13)CCCC2	Potassium channel subfamily K member 9 (Homo sapiens)	no (0)
COC(=O)c1ccccc1Sc1c(/C=N/OCc2ccc(Cl)cc2)c(C(F)(F)F)nn1C	Potassium channel subfamily K member 9 (Homo sapiens)	no (0)
COc1ccc(S(=O)(=O)N2CCN(C(=O)N(C)C)C2C)cc1 (stereo not drawn)	Potassium channel subfamily K member 9 (Homo sapiens)	no (0)
CCOCN(C(=O)Cn1c(C(C)O)nc2ccccc21)c1c(C)cccc1CC (stereo not drawn)	Potassium channel subfamily K member 9 (Homo sapiens)	no (0)

Then this molecule:
State the result this test recorded for COC(=O)c1cc(NC(=O)CC2C(=O)NCCN2C(=O)c2ccc(F)cc2)cc(C(=O)OC)c1 (stereo not drawn) . no (0)
